Target: Discoidin domain-containing receptor 2 (Homo sapiens);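 note: reported values are mean percent inhibition of DDR2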
Sequence (whole entry): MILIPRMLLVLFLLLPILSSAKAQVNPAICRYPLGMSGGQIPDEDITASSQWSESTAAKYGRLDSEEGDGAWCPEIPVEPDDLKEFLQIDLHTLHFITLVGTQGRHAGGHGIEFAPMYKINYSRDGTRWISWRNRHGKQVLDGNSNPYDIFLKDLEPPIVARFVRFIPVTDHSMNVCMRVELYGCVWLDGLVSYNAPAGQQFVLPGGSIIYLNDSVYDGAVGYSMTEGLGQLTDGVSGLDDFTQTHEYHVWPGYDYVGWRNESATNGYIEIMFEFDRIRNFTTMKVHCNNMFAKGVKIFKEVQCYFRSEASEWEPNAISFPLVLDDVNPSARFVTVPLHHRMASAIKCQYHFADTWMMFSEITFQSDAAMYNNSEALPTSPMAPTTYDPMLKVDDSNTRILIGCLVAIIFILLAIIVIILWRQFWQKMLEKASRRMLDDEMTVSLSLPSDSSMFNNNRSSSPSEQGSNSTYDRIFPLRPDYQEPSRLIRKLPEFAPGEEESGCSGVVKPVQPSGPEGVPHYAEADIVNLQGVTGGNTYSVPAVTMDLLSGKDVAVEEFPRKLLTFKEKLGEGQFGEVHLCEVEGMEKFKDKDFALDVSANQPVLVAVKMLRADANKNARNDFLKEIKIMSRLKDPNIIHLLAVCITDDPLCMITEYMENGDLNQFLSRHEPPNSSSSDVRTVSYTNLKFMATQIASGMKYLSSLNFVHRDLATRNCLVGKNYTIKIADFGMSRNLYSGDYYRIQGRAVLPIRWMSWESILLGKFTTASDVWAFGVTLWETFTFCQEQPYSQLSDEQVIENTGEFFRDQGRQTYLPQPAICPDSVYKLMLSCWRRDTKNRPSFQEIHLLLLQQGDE
Settings: at 0.1 µM
assayReadout: inhibition

smilesstr=COc1cc2ncnc(Nc3ccc(C)c(O)c3)c2cc1OC result=2.29%
smilesstr=Cc1nc(-c2ccccc2)n2nc(NCCCN3CCOCC3)ncc12 result=1.13%
smilesstr=COc1cc(Nc2nccc(-c3cnn4ncccc34)n2)cc(OC)c1 result=1.4%
smilesstr=COC(=O)Nc1nc2cc(Oc3ccc(NC(=O)Nc4cccc(Br)c4)cc3)ccc2[nH]1 result=98.2%
smilesstr=NS(=O)(=O)c1cccc(Nc2cc(-c3ccc(F)cc3)n[nH]2)c1 result=0.4%
smilesstr=COc1cc(/C=N/Nc2ncnc3c2cnn3C(C)C)ccc1O result=-0.03%
smilesstr=Cc1ccc2c(-c3ccnc(Nc4ccc5c(c4)OCCO5)n3)c(-c3ccc(C(F)(F)F)cc3)nn2n1 result=-0.19%
smilesstr=NS(=O)(=O)c1cccc(-c2cc3ccncc3cc2OCc2ccccc2)c1 result=1.4%
smilesstr=NS(=O)(=O)c1ccc(NC=C2C(=O)Nc3ccc4ncsc4c32)cc1 result=1.65%
smilesstr=COc1ccc2ncnc(Nc3ccc(OCc4ccccc4)cc3)c2c1 result=1.31%
smilesstr=ON=C1CCc2cc(-c3nc(C4CCNCC4)[nH]c3-c3ccncc3)ccc21 result=-0.82%
smilesstr=COc1cc2ncnc(Nc3ccc4c(cnn4Cc4ccccc4)c3)c2cc1OC result=1.74%
smilesstr=Cc1ccc(C(=O)NC2CC2)cc1-c1ccc2[nH]ncc2c1 result=-0.85%
smilesstr=NC(=O)c1sc(-n2cnc3ccccc32)cc1OCc1ccccc1Br result=1.76%
smilesstr=CC(C)c1ccc2c(c1)NC(=O)/C2=N/Nc1ccc(S(N)(=O)=O)cc1 result=0.55%
smilesstr=COc1ccc(-c2nn3ncccc3c2-c2ccnc(Nc3cccc(C(F)(F)F)c3)n2)cc1 result=2.63%
smilesstr=Nc1nccc(-c2c(-c3ccc(F)cc3)ncn2CCCN2CCOCC2)n1 result=-0.61%
smilesstr=CN(C)C(=O)O[C@@H]1CN[C@@H](C#Cc2cc3ncnc(Nc4ccc(OCc5cccc(F)c5)c(Cl)c4)c3s2)C1 result=1.79%
smilesstr=Nc1nccc(-c2c(-c3ccc(F)cc3)nn3cc(C(F)(F)F)ccc23)n1 result=1.51%
smilesstr=Cc1ccc(Nc2ccnc(Nc3cccc(C(N)=O)c3)n2)cc1O result=5.32%
smilesstr=Oc1cccc(-c2nc(-c3ccccc3)[nH]c2-c2ccncc2)c1 result=2.82%
smilesstr=CCn1c(-c2nonc2N)nc2ccc(F)cc21 result=0.92%
smilesstr=CS(=O)(=O)Nc1cccc(-c2ccc3c(NC(=O)C4CC4)n[nH]c3c2)c1 result=0.9%
smilesstr=CS(=O)(=O)CCNCc1nc(-c2ccc3ncnc(Nc4ccc(OCc5cccc(C(F)(F)F)c5)cc4)c3c2)cs1 result=5.44%
smilesstr=O=C(Nc1ccc(Oc2ccc3[nH]c(NC(=O)c4ccco4)nc3c2)cc1)Nc1cc(C(F)(F)F)ccc1F result=60.3%
smilesstr=O=C1Nc2ccc(-c3cccnc3)cc2C1=Cc1cc(Br)c(O)c(Br)c1 result=2.03%
smilesstr=COC(=O)c1ccc2c(c1)C(=Cc1cc(Br)c(O)c(Br)c1)C(=O)N2 result=2.18%
smilesstr=c1ccc(Nc2ncc(-c3ccccc3)o2)cc1 result=2.39%
smilesstr=CCS(=O)(=O)c1ccc(OC)c(Nc2ncc(-c3cccc(OC)c3)o2)c1 result=3.76%
smilesstr=Cc1ccc(NC(=O)CC2CC2)cc1-c1ccc(C(=O)NCC2CC2)cc1 result=2.18%

* * *

Target: Sphingosine kinase 1 (Homo sapiens) (UniProt Q9NYA1);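 note: mean percent inhibition of SPHK1 activity, measured within the GSK PKIS screening panel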
Sequence (Q9NYA1 whole entry): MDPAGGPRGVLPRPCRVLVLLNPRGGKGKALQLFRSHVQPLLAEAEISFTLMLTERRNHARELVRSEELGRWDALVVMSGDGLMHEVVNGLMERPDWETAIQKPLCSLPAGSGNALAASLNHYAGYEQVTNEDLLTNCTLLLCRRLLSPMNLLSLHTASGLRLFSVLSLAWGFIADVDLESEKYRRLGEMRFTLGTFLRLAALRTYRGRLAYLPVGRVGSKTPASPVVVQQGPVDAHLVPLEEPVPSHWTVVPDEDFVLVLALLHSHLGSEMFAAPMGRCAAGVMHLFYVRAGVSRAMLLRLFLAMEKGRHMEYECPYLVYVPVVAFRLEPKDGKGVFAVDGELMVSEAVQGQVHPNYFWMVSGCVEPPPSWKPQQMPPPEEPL
Conditions: at 0.1 µM
assayReadout: inhibition (%)

molecule=COc1cc2ncnc(Nc3ccc(C)c(O)c3)c2cc1OC resultnumber=4.48
molecule=[O-][S+]1CCN(Cc2ccc(-c3ccc4ncnc(Nc5ccc(OCc6ccccc6)c(Cl)c5)c4c3)o2)CC1 resultnumber=1.88
molecule="CCCN1CCCC(c2ccc(Nc3nc(Nc4cc(F)ccc4C(N)=O)c4cc[nH]c4n3)c(OC)c2)C1 (centres undefined)" resultnumber=-0.22
molecule=COc1cc(Nc2nccc(-c3cnn4ncccc34)n2)cc(OC)c1 resultnumber=0
molecule=C[C@@H](Oc1cc(-n2cnc3ccc(OCC4CCN(C)CC4)cc32)sc1C(N)=O)c1ccccc1C(F)(F)F resultnumber=0.59
molecule=Cc1ccc2c(c1)/C(=N/Nc1ccc(S(N)(=O)=O)cc1)C(=O)N2 resultnumber=-1.11
molecule=CCS(=O)(=O)c1ccc(OC)c(Nc2nccc(N(C)c3ccc4c(C)n[nH]c4c3)n2)c1 resultnumber=4.16
molecule=NC(=O)c1cccc(Nc2nccc(Nc3cccc(F)c3)n2)c1 resultnumber=0.35
molecule=Oc1cccc(-c2nc(-c3ccccc3)[nH]c2-c2ccncc2)c1 resultnumber=1.87

* * *

Biological target: Tyrosine-protein kinase Lyn (Homo sapiens) (UniProt P07948);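 note: mean percent inhibition of the LYN A splice variant of the kinase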
Sequence (P07948 2-512 limits assumed): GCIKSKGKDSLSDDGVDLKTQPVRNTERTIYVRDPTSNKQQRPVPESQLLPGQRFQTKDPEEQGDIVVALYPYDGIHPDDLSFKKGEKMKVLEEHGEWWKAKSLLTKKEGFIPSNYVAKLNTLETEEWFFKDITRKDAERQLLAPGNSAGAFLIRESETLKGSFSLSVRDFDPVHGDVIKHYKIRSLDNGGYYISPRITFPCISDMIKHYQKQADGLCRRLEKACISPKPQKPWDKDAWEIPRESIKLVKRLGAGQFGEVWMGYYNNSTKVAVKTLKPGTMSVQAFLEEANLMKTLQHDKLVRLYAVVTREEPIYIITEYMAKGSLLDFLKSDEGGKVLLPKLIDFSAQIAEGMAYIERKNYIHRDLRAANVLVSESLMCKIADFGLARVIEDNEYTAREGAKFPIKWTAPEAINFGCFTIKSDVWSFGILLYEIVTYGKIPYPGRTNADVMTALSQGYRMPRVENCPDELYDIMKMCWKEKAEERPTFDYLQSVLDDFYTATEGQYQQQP
Conditions: at 1 µM
Description: GSK_PKIS: LYN A (splice variant) mean inhibition at 1 uM [Nanosyn]
Each record gets a class by inhibition: lower level (below 7%), middle level (7% to below 50%), upper level (50% or more)

molecule=CC(C)c1ccc(Nc2nccc(-c3cnn4ncccc34)n2)cc1 class="middle level"
molecule=NS(=O)(=O)c1ccc(NC=C2C(=O)Nc3ccc4ncsc4c32)cc1 class="middle level"
molecule=O=C(Nc1ccc(Oc2ccc3[nH]c(NC(=O)c4ccco4)nc3c2)cc1)Nc1cc(C(F)(F)F)ccc1F class="upper level"
molecule=COc1cc2ncnc(Nc3ccc4c(cnn4Cc4ccccc4)c3)c2cc1OC class="middle level"
molecule=COc1cc2ncn(-c3cc(OCc4ccccc4S(C)(=O)=O)c(C#N)s3)c2cc1OC class="upper level"
molecule=COc1cc2ncnc(Nc3ccc(C)c(O)c3)c2cc1OC class="upper level"
molecule=OCc1ccc(-c2nc(-c3ccccn3)c(-c3ccc4c(c3)OCO4)[nH]2)cc1 class="lower level"
molecule=Nc1nccc(-c2c(-c3ccc(F)cc3)nn3cc(C(F)(F)F)ccc23)n1 class="lower level"
molecule=NS(=O)(=O)c1ccc(N/N=C2\C(=O)Nc3ccc(Cl)cc32)cc1 class="middle level"
molecule="CCCN1CCCC(c2ccc(Nc3nc(Nc4cc(F)ccc4C(N)=O)c4cc[nH]c4n3)c(OC)c2)C1 (stereo not drawn)" class="middle level"
molecule=COc1ccc(-c2nn3ncccc3c2-c2ccnc(Nc3cccc(C(F)(F)F)c3)n2)cc1 class="middle level"
molecule=Cc1cc(Cl)cc2c1NC(=O)C2=NNc1ccc(S(N)(=O)=O)cc1 class="lower level"

* * *

Property: inhibition; scope: individual compounds
Molecular target: Serine/threonine-protein kinase Nek9 (Homo sapiens);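 note: reported value is the mean percent inhibition of NEK9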
Conditions: at 0.1 µM
assayReadout: inhibition (%)

smilesstr=CCOc1nccc2c1nc(-c1nonc1N)n2CC resultnumber=6.44
smilesstr=COc1cc2ncnc(Nc3ccc(C)c(O)c3)c2cc1OC resultnumber=6.41
smilesstr=NS(=O)(=O)c1cccc(-c2cc3ccncc3cc2OCc2ccccc2)c1 resultnumber=2.36
smilesstr=CS(=O)(=O)Nc1cccc(-c2ccc3c(NC(=O)C4CC4)n[nH]c3c2)c1 resultnumber=2.01
smilesstr=Nc1nccc(-c2c(-c3ccc(F)cc3)ncn2CCCN2CCOCC2)n1 resultnumber=9.19
smilesstr=Cc1ccc(Nc2ccnc(Nc3cccc(C(N)=O)c3)n2)cc1O resultnumber=6.86

* * *

Biological target: Tyrosine-protein kinase Fes/Fps (Homo sapiens)
Details: at 0.1 µM
Description: GSK_PKIS: FES mean inhibition at 0.1 uM [Nanosyn]
inhibition overview
assayReadout: inhibition (%)

smilesstr=CS(=O)(=O)Nc1cccc(-c2ccc3c(NC(=O)C4CC4)n[nH]c3c2)c1 valueunits=% resultnumber=0.9
smilesstr=O=S(=O)(CCOCc1ccc(-c2ccc3ncnc(Nc4ccc(OCc5cccc(F)c5)c(Cl)c4)c3c2)o1)c1ccccc1 valueunits=% resultnumber=0.82
smilesstr=NC(=O)c1cccc(Nc2nccc(Nc3cccc(F)c3)n2)c1 valueunits=% resultnumber=1.24
smilesstr=Cc1nc(-c2ccccc2)n2nc(NCCCN3CCOCC3)ncc12 valueunits=% resultnumber=2.16
smilesstr=CN(C)C(=O)O[C@H]1CN[C@H](C#Cc2cc3ncnc(Nc4ccc(OCc5cccc(F)c5)c(Cl)c4)c3s2)C1 valueunits=% resultnumber=2.17
smilesstr=c1ccc(Cc2nc3ccc(Nc4ncnc5ccccc45)cc3[nH]2)cc1 valueunits=% resultnumber=1.75
smilesstr=COc1cc2ncnc(Nc3ccc4c(cnn4Cc4ccccc4)c3)c2cc1OC valueunits=% resultnumber=2.06
smilesstr=Cc1cc(O)cc(C)c1/C=C/c1cncc(C(=O)N(C)C)c1 valueunits=% resultnumber=1.75
smilesstr=CS(=O)(=O)CCNCc1nc(-c2ccc3ncnc(Nc4ccc(OCc5cccc(C(F)(F)F)c5)cc4)c3c2)cs1 valueunits=% resultnumber=1.48
smilesstr=C[C@@H](Oc1cc(-n2cnc3ccc(OCC4CCN(C)CC4)cc32)sc1C(N)=O)c1ccccc1C(F)(F)F valueunits=% resultnumber=-1.88
smilesstr=Cc1cc(-c2ccccn2)cc(C)c1/C=C/c1cncc(-c2nn[nH]n2)c1 valueunits=% resultnumber=3.53
smilesstr=NS(=O)(=O)c1ccc(N/N=C2\C(=O)Nc3ccc(Cl)cc32)cc1 valueunits=% resultnumber=2.52
smilesstr=NS(=O)(=O)c1cccc(Nc2cc(-c3ccc(F)cc3)n[nH]2)c1 valueunits=% resultnumber=2.34
smilesstr=CN(C)C(=O)O[C@@H]1CN[C@@H](C#Cc2cc3ncnc(Nc4ccc(OCc5cccc(F)c5)c(Cl)c4)c3s2)C1 valueunits=% resultnumber=-0.22
smilesstr=Cc1ccc(O)cc1Nc1ccnc2ccc(S(C)(=O)=O)cc12 valueunits=% resultnumber=8.11
smilesstr=COc1cc2ncnc(Nc3ccc(C)c(O)c3)c2cc1OC valueunits=% resultnumber=2.91
smilesstr=Cc1ccc(C(=O)NC2CC2)cc1-c1ccc2[nH]ncc2c1 valueunits=% resultnumber=-3.18
smilesstr=CN1CCN(C(=O)c2ccc(NC(=O)Nc3ccc(N(C)c4ccnc(Nc5ccc(CS(C)(=O)=O)cc5)n4)cc3)cc2)CC1 valueunits=% resultnumber=7.35

The origin of these recorded values is ChEMBL document CHEMBL1961873.
